Taken from paper PMC4435638.

# ASSAY_REMARKS: Plasma pharmacokinetics of volasertib and CD 10899 (HPLC-MS/MS)
# Type: in vivo, human
# MEASUREMENT_PARAMETERS: human, plasma, intravenous, volasertib combined with cisplatin; n = 28; read-out: Vss (apparent volume of distribution at steady state), gMean
ASSAY_ENDPOINT: Vd (L)
Write it as a number; the unit L goes unstated.

Input: Field request: Vd | item: CC[C@@H]1C(=O)N(C)c2cnc(Nc3ccc(C(=O)N[C@H]4CC[C@H](N5CCN(CC6CC6)CC5)CC4)cc3OC)nc2N1C(C)C
Output: 6780

###

# ASSAY_REMARKS: Plasma pharmacokinetics of volasertib and CD 10899 (HPLC-MS/MS)
# Assay type: in vivo, human
# MEASUREMENT_PARAMETERS: human, plasma, intravenous, volasertib combined with carboplatin; n = 28; read-out: CL (total clearance), gMean
ASSAY_ENDPOINT: clearance (mL/min)
Write it as a number; the unit mL/min goes unstated.

Input: Field request: clearance | item: CC[C@@H]1C(=O)N(C)c2cnc(Nc3ccc(C(=O)N[C@H]4CC[C@H](N5CCN(CC6CC6)CC5)CC4)cc3OC)nc2N1C(C)C
Output: 865
